details: in DMF, 283.15 K
measured-property: solubility (mole fraction)
One number for each entry.

QUERY: So what's the measured solubility (mole fraction) for this one? `Clc1ncnc2nc[nH]c12`
RESULT: 0.0555

----------
details: in methanol, 293.15 K
measured-property: solubility (mole fraction)
Answers are plain numbers.

QUERY: So what's the measured solubility (mole fraction) for this one? `Clc1ncnc2nc[nH]c12`
RESULT: 0.0153

----------
conditions: in ethanol, 328.15 K
measured-property: solubility (mole fraction)
Numbers only.

QUERY: So what's the measured solubility (mole fraction) for this one? `Clc1ncnc2nc[nH]c12`
RESULT: 0.0338

----------
settings: in DMAc, 303.15 K
measured-property: solubility (mole fraction)
Answers are plain numbers.

QUERY: So what's the measured solubility (mole fraction) for this one? `Clc1ncnc2nc[nH]c12`
RESULT: 0.0411

----------
settings: in ethanol, 293.15 K
measured-property: solubility (mole fraction)
Numbers only.

QUERY: So what's the measured solubility (mole fraction) for this one? `Clc1ncnc2nc[nH]c12`
RESULT: 0.0122

----------
conditions: in methanol, 308.15 K
measured-property: solubility (mole fraction)

QUERY: So what's the measured solubility (mole fraction) for this one? `Clc1ncnc2nc[nH]c12`
RESULT: 0.0234

----------
conditions: in water, 283.15 K
measured-property: solubility (mole fraction)
Numbers only.

QUERY: So what's the measured solubility (mole fraction) for this one? `Clc1ncnc2nc[nH]c12`
RESULT: 0.00051

----------
conditions: in water, 298.15 K
measured-property: solubility (mole fraction)

QUERY: So what's the measured solubility (mole fraction) for this one? `Clc1ncnc2nc[nH]c12`
RESULT: 0.000658

----------
conditions: in ethanol, 283.15 K
measured-property: solubility (mole fraction)
Answers are plain numbers.

QUERY: So what's the measured solubility (mole fraction) for this one? `Clc1ncnc2nc[nH]c12`
RESULT: 0.0087

----------
settings: in ethanol, 318.15 K
measured-property: solubility (mole fraction)

QUERY: So what's the measured solubility (mole fraction) for this one? `Clc1ncnc2nc[nH]c12`
RESULT: 0.026

----------
settings: in water, 328.15 K
measured-property: solubility (mole fraction)
Numbers only.

QUERY: So what's the measured solubility (mole fraction) for this one? `Clc1ncnc2nc[nH]c12`
RESULT: 0.000994

----------
settings: in ethanol, 288.15 K
measured-property: solubility (mole fraction)
One number for each entry.

QUERY: So what's the measured solubility (mole fraction) for this one? `Clc1ncnc2nc[nH]c12`
RESULT: 0.0103

----------
conditions: in water, 318.15 K
measured-property: solubility (mole fraction)
One number for each entry.

QUERY: So what's the measured solubility (mole fraction) for this one? `Clc1ncnc2nc[nH]c12`
RESULT: 0.000873

----------
conditions: in DMAc, 293.15 K
measured-property: solubility (mole fraction)
Numbers only.

QUERY: So what's the measured solubility (mole fraction) for this one? `Clc1ncnc2nc[nH]c12`
RESULT: 0.0267

----------
conditions: in ethanol, 323.15 K
measured-property: solubility (mole fraction)
Answers are plain numbers.

QUERY: So what's the measured solubility (mole fraction) for this one? `Clc1ncnc2nc[nH]c12`
RESULT: 0.0296

----------
settings: in DMF, 293.15 K
measured-property: solubility (mole fraction)
Numbers only.

QUERY: So what's the measured solubility (mole fraction) for this one? `Clc1ncnc2nc[nH]c12`
RESULT: 0.075

----------
details: in DMAc, 298.15 K
measured-property: solubility (mole fraction)

QUERY: So what's the measured solubility (mole fraction) for this one? `Clc1ncnc2nc[nH]c12`
RESULT: 0.0334

----------
conditions: in DMF, 288.15 K
measured-property: solubility (mole fraction)
Numbers only.

QUERY: So what's the measured solubility (mole fraction) for this one? `Clc1ncnc2nc[nH]c12`
RESULT: 0.0645

----------
settings: in DMF, 308.15 K
measured-property: solubility (mole fraction)
Give bare numbers.

QUERY: So what's the measured solubility (mole fraction) for this one? `Clc1ncnc2nc[nH]c12`
RESULT: 0.114

----------
conditions: in ethanol, 298.15 K
measured-property: solubility (mole fraction)
Give bare numbers.

QUERY: So what's the measured solubility (mole fraction) for this one? `Clc1ncnc2nc[nH]c12`
RESULT: 0.0144

----------
conditions: in DMF, 328.15 K
measured-property: solubility (mole fraction)
Numbers only.

QUERY: So what's the measured solubility (mole fraction) for this one? `Clc1ncnc2nc[nH]c12`
RESULT: 0.186

----------
conditions: in DMF, 303.15 K
measured-property: solubility (mole fraction)
Numbers only.

QUERY: So what's the measured solubility (mole fraction) for this one? `Clc1ncnc2nc[nH]c12`
RESULT: 0.0995

----------
conditions: in ethanol, 308.15 K
measured-property: solubility (mole fraction)
Give bare numbers.

QUERY: So what's the measured solubility (mole fraction) for this one? `Clc1ncnc2nc[nH]c12`
RESULT: 0.0195

----------
details: in methanol, 283.15 K
measured-property: solubility (mole fraction)
One number for each entry.

QUERY: So what's the measured solubility (mole fraction) for this one? `Clc1ncnc2nc[nH]c12`
RESULT: 0.0112

----------
conditions: in methanol, 323.15 K
measured-property: solubility (mole fraction)
Give bare numbers.

QUERY: So what's the measured solubility (mole fraction) for this one? `Clc1ncnc2nc[nH]c12`
RESULT: 0.0345

----------
conditions: in water, 323.15 K
measured-property: solubility (mole fraction)

QUERY: So what's the measured solubility (mole fraction) for this one? `Clc1ncnc2nc[nH]c12`
RESULT: 0.000935

----------
settings: in DMAc, 288.15 K
measured-property: solubility (mole fraction)

QUERY: So what's the measured solubility (mole fraction) for this one? `Clc1ncnc2nc[nH]c12`
RESULT: 0.0217

----------
conditions: in DMF, 313.15 K
measured-property: solubility (mole fraction)
Give bare numbers.

QUERY: So what's the measured solubility (mole fraction) for this one? `Clc1ncnc2nc[nH]c12`
RESULT: 0.129

----------
conditions: in DMF, 318.15 K
measured-property: solubility (mole fraction)
Give bare numbers.

QUERY: So what's the measured solubility (mole fraction) for this one? `Clc1ncnc2nc[nH]c12`
RESULT: 0.147

----------
conditions: in DMAc, 283.15 K
measured-property: solubility (mole fraction)

QUERY: So what's the measured solubility (mole fraction) for this one? `Clc1ncnc2nc[nH]c12`
RESULT: 0.0175

----------
settings: in DMAc, 308.15 K
measured-property: solubility (mole fraction)

QUERY: So what's the measured solubility (mole fraction) for this one? `Clc1ncnc2nc[nH]c12`
RESULT: 0.0504

----------
details: in DMAc, 313.15 K
measured-property: solubility (mole fraction)
One number for each entry.

QUERY: So what's the measured solubility (mole fraction) for this one? `Clc1ncnc2nc[nH]c12`
RESULT: 0.061

----------
conditions: in water, 293.15 K
measured-property: solubility (mole fraction)
Give bare numbers.

QUERY: So what's the measured solubility (mole fraction) for this one? `Clc1ncnc2nc[nH]c12`
RESULT: 0.000601

----------
details: in DMAc, 328.15 K
measured-property: solubility (mole fraction)

QUERY: So what's the measured solubility (mole fraction) for this one? `Clc1ncnc2nc[nH]c12`
RESULT: 0.107

Values from BigSolDB 2.1
